Catalogue of molecules with associated IC50
assayed.system: G protein-coupled receptor kinase 5 (Homo sapiens, UniProt P34947)
Sequence (P34947 whole entry): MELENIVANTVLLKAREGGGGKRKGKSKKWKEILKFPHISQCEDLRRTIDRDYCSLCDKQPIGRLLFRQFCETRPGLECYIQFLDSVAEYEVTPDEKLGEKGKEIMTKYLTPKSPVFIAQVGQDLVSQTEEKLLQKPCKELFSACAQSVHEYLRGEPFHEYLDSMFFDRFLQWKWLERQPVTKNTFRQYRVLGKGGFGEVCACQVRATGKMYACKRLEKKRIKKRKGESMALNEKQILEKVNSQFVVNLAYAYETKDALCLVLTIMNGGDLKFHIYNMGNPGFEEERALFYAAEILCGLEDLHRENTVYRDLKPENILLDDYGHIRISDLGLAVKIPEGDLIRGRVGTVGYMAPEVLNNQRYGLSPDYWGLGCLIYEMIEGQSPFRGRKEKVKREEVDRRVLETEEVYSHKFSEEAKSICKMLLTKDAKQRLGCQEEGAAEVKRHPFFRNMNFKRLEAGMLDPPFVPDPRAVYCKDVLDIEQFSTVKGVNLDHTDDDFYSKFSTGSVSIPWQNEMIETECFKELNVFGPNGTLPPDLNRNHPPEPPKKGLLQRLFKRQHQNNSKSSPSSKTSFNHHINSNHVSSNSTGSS
Unit µM implied. Number only.

Some solved entries appear below for comparison.
molecule: COc1ccc(CNC(=O)c2cc(C3NC(=O)NC(C)=C3C(=O)Nc3ccc4[nH]ncc4c3)ccc2F)cc1 (stereo not drawn)
test.result: 8.1
//
molecule: CCCn1c(CNc2cccc(C(=O)NCc3c(F)cccc3F)c2)nnc1-c1ccncn1
test.result: 2.2
//
molecule: COc1ccccc1CNC(=O)c1cc(C2NC(=O)NC(C)=C2C(=O)Nc2ccc3[nH]ncc3c2)ccc1F (stereo not drawn)
test.result: 2.3

The measured IC50 that CC1=C(C(=O)Nc2ccc3[nH]ncc3c2)C(c2ccc(F)c(C(=O)NCc3ccccc3)c2)NC(=O)N1 (stereo not drawn) showed for G protein-coupled receptor kinase 5 (Homo sapiens, UniProt P34947) is 4.7
